The measured values listed here are drawn from the supplement of paper PMC9112550.

Property: shrunken log2 fold change; scope: individual sequences
# Test system: Escherichia coli TOP10;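 also: peptides expressed intracellularly from a pBAD plasmid library in pooled LB shake-flask culture, induced with 0.3% L-arabinose, DNA abundance read by NGS, three biological replicates, DESeq2 with apeglm shrinkage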
# Procedure text: shrunken log2 fold change of peptide-encoding DNA abundance (4.5 h post-induction vs induction); higher = less antimicrobial activity (less host growth inhibition)
# Condition context: time post-induction: 4.5 h; library: site-saturation at positions 5, 18, 19, 20
Result type: shrunken log2 fold change

>>> df
            sequence_record                result_type  meas_value
 0  RRIRQRPPRLPRPRPRPKLCPRP  shrunken log2 fold change      0.0303
 1  RRIRDRPPRLPRPRPRPFWTPRP  shrunken log2 fold change      -0.116
 2  RRIRLRPPRLPRPRPRPMWCPRP  shrunken log2 fold change       0.214
 3  RRIRQRPPRLPRPRPRPSSSPRP  shrunken log2 fold change       -1.39
 4  RRIRYRPPRLPRPRPRPWCAPRP  shrunken log2 fold change      -0.255
 5  RRIRDRPPRLPRPRPRPIECPRP  shrunken log2 fold change       0.279
 6  RRIRIRPPRLPRPRPRPPCLPRP  shrunken log2 fold change      -0.122
 7  RRIRARPPRLPRPRPRPAHQPRP  shrunken log2 fold change       0.568
 8  RRIRERPPRLPRPRPRPTKVPRP  shrunken log2 fold change      0.0356
 9  RRIRERPPRLPRPRPRPVSKPRP  shrunken log2 fold change      -0.201
10  RRIRTRPPRLPRPRPRPQGLPRP  shrunken log2 fold change     -0.0814
11  RRIRWRPPRLPRPRPRPGIMPRP  shrunken log2 fold change       0.238
12  RRIRYRPPRLPRPRPRPIPLPRP  shrunken log2 fold change      -0.418
13  RRIRLRPPRLPRPRPRPSKSPRP  shrunken log2 fold change     -0.0582
14  RRIRNRPPRLPRPRPRPRWDPRP  shrunken log2 fold change       0.249
